B1: 2K2A (parent)
chain: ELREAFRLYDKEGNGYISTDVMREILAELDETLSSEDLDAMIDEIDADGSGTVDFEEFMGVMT

Variants of: B1
Test: folding stability dG (cDNA display proteolysis); higher = more stable
Details: PBS, room temperature
Below, each of the variants is paired with its reported folding stability dG value.
State just the number; it will be interpreted in kJ/mol.

Some variants with known folding stability dG results, for comparison:
mutant_id	folding stability dG, kJ/mol
L8Y	8.26
V21C	8.35

Inquiry: Given the variant K11I , what is its reported folding stability dG?
Reply text: 8.41

Inquiry: Same read-out for D43E ?
Reply text: 8.48

Inquiry: Same read-out for D37C ?
Reply text: 8.39
